System tested: GST-Xa-hAAK1 (Homo sapiens (Human))
Sequence (Q2M2I8 whole entry): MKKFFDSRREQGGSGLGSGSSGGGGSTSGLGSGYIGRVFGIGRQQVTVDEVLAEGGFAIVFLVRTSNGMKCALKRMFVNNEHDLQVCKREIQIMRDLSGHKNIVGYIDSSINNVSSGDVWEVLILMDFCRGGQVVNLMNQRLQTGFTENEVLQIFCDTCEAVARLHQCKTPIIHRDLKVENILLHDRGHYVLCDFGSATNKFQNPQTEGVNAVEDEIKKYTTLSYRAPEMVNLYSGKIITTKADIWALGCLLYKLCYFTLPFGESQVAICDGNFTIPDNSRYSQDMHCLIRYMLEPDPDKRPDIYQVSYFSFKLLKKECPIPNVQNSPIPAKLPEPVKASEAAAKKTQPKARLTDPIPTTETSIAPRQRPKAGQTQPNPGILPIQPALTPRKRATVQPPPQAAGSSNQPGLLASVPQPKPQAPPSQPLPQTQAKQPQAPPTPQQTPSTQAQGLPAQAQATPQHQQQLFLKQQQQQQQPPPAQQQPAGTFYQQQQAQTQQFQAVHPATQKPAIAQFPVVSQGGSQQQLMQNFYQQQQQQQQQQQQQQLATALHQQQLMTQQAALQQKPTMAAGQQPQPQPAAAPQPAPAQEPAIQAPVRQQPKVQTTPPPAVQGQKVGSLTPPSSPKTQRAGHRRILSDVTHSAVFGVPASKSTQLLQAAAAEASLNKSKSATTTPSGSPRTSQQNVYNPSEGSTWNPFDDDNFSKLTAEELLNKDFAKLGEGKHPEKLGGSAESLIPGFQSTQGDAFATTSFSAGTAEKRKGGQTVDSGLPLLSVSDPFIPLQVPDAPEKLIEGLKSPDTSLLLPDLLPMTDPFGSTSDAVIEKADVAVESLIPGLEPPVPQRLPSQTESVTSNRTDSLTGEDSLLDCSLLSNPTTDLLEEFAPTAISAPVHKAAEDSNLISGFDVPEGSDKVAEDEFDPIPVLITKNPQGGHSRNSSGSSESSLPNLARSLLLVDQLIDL
Assay name: AAK1 Kinase Assay
Format: biochemical
Test conditions: ATP 22 μM; 3 hours at room temperature; listed as IC50 ranges
Outcome measure: IC50

Example cases with answers are listed next.
>>> obs_value("NC1CCN(Cc2ccn3ncnc(Nc4cccc(-c5nnc(C6CC6)s5)c4)c23)CC1 [Example 23]")
"100 to 1000 nM"
>>> obs_value("CC(C)n1nnc(-c2cc(Nc3ncnn4ccc(CN5CCC(N)CC5)c34)c3[nH]ccc3c2)n1 [Example 74]")
"10 to 100 nM"
>>> obs_value("NC1CCN(Cc2ccn3ncnc(Nc4cccc(-c5noc(CCl)n5)c4)c23)CC1 [Example 11]")
"100 to 1000 nM"
>>> obs_value("CC(C)(C)c1nc(-c2cccc(Nc3ncnn4ccc(CN5CCC(N)CC5)c34)c2)no1 [Example 5]")
"10 to 100 nM"
>>> obs_value("CC(C)n1nnc(-c2cccc(Nc3ncnn4ccc(CN5[C@@H]6CC[C@H]5CN(C)C6)c34)c2)n1 [Example 60]")
"100 to 1000 nM"
>>> obs_value("CCCc1nnc(-c2cccc(Nc3ncnn4ccc(CN5CCC(N)CC5)c34)c2)s1 [Example 21]")
"10 to 100 nM"
>>> obs_value("CCc1nnc(-c2cccc(Nc3ncnn4ccc(CN5CCC(N)CC5)c34)c2)[nH]1 [Example 15]")
"10 to 100 nM"
>>> obs_value("CC(C)n1nnc(-c2ccc(F)c(Nc3ncnn4ccc(CN5CCC(N)CC5)c34)c2)n1 [Example 50]")
"100 to 1000 nM"

// next item, IC50 requested
Give the measured IC50 of CC(C)c1nc(-c2cc(O)cc(Nc3ncnn4ccc(CN5CCC(N)CC5)c34)c2)no1 [Example 37] .
1 to 10 nM
